meta.source: patent US8796289B2

target entity: GST-tagged-Wee1 kinase (Homo sapiens, UniProt P30291)
Sequence (P30291 whole entry): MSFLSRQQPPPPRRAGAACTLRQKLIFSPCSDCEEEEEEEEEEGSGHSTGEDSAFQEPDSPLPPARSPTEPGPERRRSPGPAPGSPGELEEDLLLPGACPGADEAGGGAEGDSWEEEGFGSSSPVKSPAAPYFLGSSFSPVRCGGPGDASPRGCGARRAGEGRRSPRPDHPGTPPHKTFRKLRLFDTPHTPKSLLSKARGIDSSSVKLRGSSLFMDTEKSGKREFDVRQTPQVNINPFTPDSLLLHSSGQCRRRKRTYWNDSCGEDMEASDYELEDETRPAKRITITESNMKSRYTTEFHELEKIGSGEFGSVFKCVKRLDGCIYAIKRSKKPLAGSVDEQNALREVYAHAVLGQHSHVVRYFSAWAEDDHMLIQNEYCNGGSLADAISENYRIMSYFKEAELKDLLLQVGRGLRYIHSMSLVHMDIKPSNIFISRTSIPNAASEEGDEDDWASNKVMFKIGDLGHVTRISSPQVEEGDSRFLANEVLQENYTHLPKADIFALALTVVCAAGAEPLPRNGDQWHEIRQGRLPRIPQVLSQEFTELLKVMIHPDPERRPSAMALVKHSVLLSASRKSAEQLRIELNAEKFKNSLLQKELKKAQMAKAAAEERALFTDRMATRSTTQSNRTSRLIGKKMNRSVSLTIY
test: Wee1 time-resolved fluorescence equilibrium binding assay (displacement of Oregon Green-labeled ATP-competitive kinase probe)
assay endpoint: pKi
Reminder that pKi means the negative base-10 logarithm of the concentration expressed in mol/L.

Known pKi results, listed for orientation:
[
  {
    "molecule": "CN1CCN(c2ccc(Nc3ncc4c(=O)n(-c5c(Cl)cccc5Cl)nc(-c5cccc(N6CCCC6)n5)c4n3)cc2)CC1 [Example 180]",
    "target entity": "GST-tagged-Wee1 kinase (Homo sapiens, UniProt P30291)",
    "quantitative readout": 8.70
  },
  {
    "molecule": "Cc1ccccc1-n1nc(-c2cccc(N3CCCC3)n2)c2nc(Nc3ccc(N4CCN(C)CC4)cc3)ncc2c1=O [Example 182]",
    "target entity": "GST-tagged-Wee1 kinase (Homo sapiens, UniProt P30291)",
    "quantitative readout": 7.92
  },
  {
    "molecule": "CN1CCN(c2ccc(Nc3ncc4c(=O)n(-c5ccccc5Cl)nc(-c5ccncc5)c4n3)cc2)CC1 [Example 155]",
    "target entity": "GST-tagged-Wee1 kinase (Homo sapiens, UniProt P30291)",
    "quantitative readout": 9.40
  }
]

Let's switch to this molecule now.
Complete the entry with pKi for Cc1nn(-c2c(Cl)cccc2Cl)c(=O)c2cnc(Nc3ccc(CN4CCN(C)CC4)cc3)nc12 [Example 454] 8.92
